target: thrombin (Homo sapiens); assay: in-vitro inhibition of the amidase activity of thrombin (fluorogenic substrate Tos-Gly-Pro-Arg-AMC); assay type: biochemical; design: 10 μl of human thrombin solution; conditions: peptide concentration of 250 nM
Square brackets hold non-standard residues; d marks the D form. Phe(4-NO2) = N[C@@H](Cc1ccc([N+](=O)[O-])cc1)C(=O)O; Tpi = O=C(O)[C@@H]1Cc2c([nH]c3ccccc23)CN1; hArg = N=C(N)NCCCC[C@H](N)C(=O)O; dCha = N[C@H](CC1CCCCC1)C(=O)O; Nle = CCCC[C@H](N)C(=O)O; Aze = O=C(O)[C@@H]1CCN1
inhibition of the amidase activity of the thrombin by entry:
measured_metric: inhibition of the amidase activity of the thrombin (%)

{"substance": "N-acetyl-D-Phe-D-Cha-L-Aze-D-Tyr-L-Har amide (Ac-[dF][dCha][Aze][dY][hArg]-NH2; SMILES CC(=O)N[C@H](Cc1ccccc1)C(=O)N[C@H](CC1CCCCC1)C(=O)N1CC[C@H]1C(=O)N[C@H](Cc1ccc(O)cc1)C(=O)N[C@@H](CCCCNC(=N)N)C(N)=O) [Example 20]", "observed_value": 77}
{"substance": "N-acetyl-L-Trp-D-Cha-L-Aze-D-Tyr-L-Har amide (Ac-W[dCha][Aze][dY][hArg]-NH2; SMILES CC(=O)N[C@@H](Cc1c[nH]c2ccccc12)C(=O)N[C@H](CC1CCCCC1)C(=O)N1CC[C@H]1C(=O)N[C@H](Cc1ccc(O)cc1)C(=O)N[C@@H](CCCCNC(=N)N)C(N)=O) [Example 18]", "observed_value": 76}
{"substance": "N-acetyl-L-Nhm-D-Cha-L-Aze-D-Tyr-L-Har amide (Ac-[Tpi][dCha][Aze][dY][hArg]-NH2; SMILES CC(=O)N1Cc2[nH]c3ccccc3c2C[C@H]1C(=O)N[C@H](CC1CCCCC1)C(=O)N1CC[C@H]1C(=O)N[C@H](Cc1ccc(O)cc1)C(=O)N[C@@H](CCCCNC(=N)N)C(N)=O) [Example 22]", "observed_value": 80}
{"substance": "N-acetyl-L-Nle-D-Cha-L-Aze-D-Tyr-L-Har amide (Ac-[Nle][dCha][Aze][dY][hArg]-NH2; SMILES CCCC[C@H](NC(C)=O)C(=O)N[C@H](CC1CCCCC1)C(=O)N1CC[C@H]1C(=O)N[C@H](Cc1ccc(O)cc1)C(=O)N[C@@H](CCCCNC(=N)N)C(N)=O) [Example 27]", "observed_value": 89}
{"substance": "N-acetyl-L-Ala-D-Cha-L-Aze-D-Tyr-L-Har amide (Ac-A[dCha][Aze][dY][hArg]-NH2; SMILES CC(=O)N[C@@H](C)C(=O)N[C@H](CC1CCCCC1)C(=O)N1CC[C@H]1C(=O)N[C@H](Cc1ccc(O)cc1)C(=O)N[C@@H](CCCCNC(=N)N)C(N)=O) [Example 19]", "observed_value": 77}
{"substance": "N-acetyl-L-Pnp-D-Cha-L-Aze-D-Tyr-L-Har amide (Ac-[Phe(4-NO2)][dCha][Aze][dY][hArg]-NH2; SMILES CC(=O)N[C@@H](Cc1ccc([N+](=O)[O-])cc1)C(=O)N[C@H](CC1CCCCC1)C(=O)N1CC[C@H]1C(=O)N[C@H](Cc1ccc(O)cc1)C(=O)N[C@@H](CCCCNC(=N)N)C(N)=O) [Example 29]", "observed_value": 72}
